assay: soluble on expression in E. coli; label from the status in PepcDB or PDB records
Readout kind: soluble on expression in E. coli

Ordered residues | Observed result
MGSDKIHHHHHHMQISNEDYEQLKPLLFSLGYRLLGSVTDAEDLVQETFLRAYQAEEREINNKKAYLCKMMTNRCLDVLKSARRKREQYVGPWLPEPLLITSDDPSEAILQKEGLSMAYLRMMEHLTPHERAVFLLREVFTFSYREIASMMEKKEDNCRKLYSRAKEKLSAVKGESLHYENNRSVVDRFIHSFQTEDQGDLLELLSDHVTLYTDGGGKVRAALRPIYTKDHVAAFLFGIAKKRPNDFYVEVKNVNGQPALISYADSKLYNVICFYIVGGQIQDIYIIMNPEKLPSNG | not soluble
MGSDKIHHHHHHMKFIFDIDGTICFKGNAVTKGIIHALDVCQSKGHEVIFASARPIRDLLPVLPNHMHHYSMIGGNGAFIAKGKDTIEVITFDPGTVSAIHSIIKKHSLSYLIDSHWNYSYTGSENHPIYKNIDPNQLANNVHIDEIKEVVKVVLFPDHVQKEYIMNMLTELPIRIYEHDNEGIVDISPENIDKWVGLQRLGIKEREFVVFGNDSNDLSMFLHAKESICVGSHEVLLGYASTCLKIDEQSIVNKIIELSELYA | not soluble
MGSDKIHHHHHHMDYWEKADYSWSDDSKRHILTPSSKSRTLFYYIQEIGQFKASRPYYTERAHLPSYLIKFTLNGTGELRYRYHTYSLQRGDLFFIDCRDYQYYQATSEDPWEMDWIHFEGGNSGAFFQEFMKNGSPVFSTNQLPEDNPIHLIIQQLLQLQDLQHAQTDYQSSVLIHQLLNELLLQKYRQDFTYETIPSLVLEMKAYIDQHFKETISLEDLAQLFHLNKYQLNKEFSKYIGLPPIKYQISKKISYSKDLLRYSNQTVKEIAVDVGLENYAYFSRLFKKRTGLTPSQYRKSGF | not soluble

----------
test: soluble on expression in E. coli; label from the status in PepcDB or PDB records
Readout kind: soluble on expression in E. coli

Ordered residues | Observed result
MTLHLPGADGTLRAYEPRTEPLPTLRATSGSAFSSRTVFSAAHVVADPYADTTPDGPAAVDWDATLAFRRHLWSHGLGVAEAMDTAQRGMGLDWPTAAELIRRSAAEARATGGRIACGVGTDQLTATAATLADVRSAYEEQLAVVEESGAQAILMASRALAATAKGPDDYLEVYGHLLRQAAEPVILHWLGPMFDPALEGYWGSSDLDAATDTFLEVIAAHPDKVDGIKVSLLDAQREIDLRRRLPRGVRCYTGDDFNYPELIAGDEQGFSHALLGIFDPLGPLAAEAVRVLDTGDTDGFRALLDPTVELSRHLFRAPTRYYKTGVVFLAWLAGHQSHFTMVGGLQSARSLPHLARAYELADGLGLFPDPKPAEERMRNLLALYGVN | not soluble
MSLIIPEKFQHIHRVMNTNIDGNRKVPYALTAIKGVGRRFAFVCCRKADVDVNKRAGELTEEDFDKIVTIMQNPSQYKIPNWFLNRQKDIKDGKTGQLLSTAVDNKLREDLERMKKIRLHRGLRHYWGLRVRGQHTKTTGRKGRTVGVSKKKGG | not soluble

----------
experiment: soluble on expression in E. coli; label from the status in PepcDB or PDB records
Readout kind: soluble on expression in E. coli

Ordered residues | Observed result
SPRPRKRQTGTAGPDRKKLSGKRTKTENSESTSVKLENSSLEMTTTFKNGGKNLSNYWLMKSEPESRLEKGIDMKFSIEDLKAQPKQTACWDGVRNYQARNFLRAMKLEDEAFFYHSNCKQPGIVGLMKIVKEAYPDHTQFEKSNPHYDPSSKEDDPKWSMVDVQFVRMMKRFIPLEELKTYHQAHKATGGPLKSMTLFTRQRLSVQPLTQEEFDFILSLEETEPS | soluble
MGLLDMIGPVMVGPSSSHTAGACRLALLARHLLGEKPKRVEFGLHGSFAKTGKGHGTHLALAAGVLGLTPDDERLKESLSLAEREGVEVVFKEVELGDVHPNTVRMVLEGEKERLAVTGSSLGGGLVRVFDVDGFEVRITGSAPTLVIKNVDTPGVVARVARILADDEVNIAYLTVSRKKRGGEAMMSIEVDRPLSEVPLRYLEHLSYILWVRQIPPVMG | soluble
